Target: hGYS1 enzyme (recombinant hGYS1/GN1 protein) (Homo sapiens (Human))
Test: GYS1 coupled enzyme assay (PK/LDH)
Conditions: hGYS1/GN1 50 nM, UDP-Glucose 0.8 mM, G6P 1 mM; geometric mean of at least 2 runs
pIC50: −log10 of the molar value.
readout_label: pIC50

O=C(NC(c1ccccc1)c1ccc(C2CCC2)cn1)[C@@H]1C[C@@H](F)CN1C(=O)Cc1cnn[nH]1 (single isomer, unassigned) [Compound 610] | 6.97
CC(C)c1ccc([C@@H](NC(=O)[C@@H]2C[C@@H](F)CN2C(=O)CCc2c[nH]c3ncccc23)c2ccccc2)cc1 [Compound 104] | 7.21
CC(C)c1ccc([C@@H](NC(=O)[C@@H]2C[C@@H](F)CN2C(=O)COc2cccnn2)c2ccccc2)cc1 [Compound 21] | 7.57
CN(C)c1cnnn1CC(=O)N1C[C@H](F)C[C@H]1C(=O)N[C@@H](c1ccccc1)c1ccc(C2CC2)c(F)n1 [Compound 298] | 7.92
CC(=O)N(C)[C@H](C)C(=O)N1C[C@H](F)C[C@H]1C(=O)N[C@@H](c1ccccc1)c1ccc(C(C)C)cc1 [Compound 145] | 6.04
COc1ncccc1C(NC(=O)[C@@H]1C[C@@H](F)CN1C(=O)Cc1cnn[nH]1)c1ccc(C2(C)CC2)c(F)c1 (single isomer, unassigned) [Compound 626] | 6.09

a. Cc1ccnn1CC(=O)N1C[C@H](F)C[C@H]1C(=O)N[C@@H](c1ccccc1)c1ccc(C2CC2)c(F)n1 [Compound 724]
b. CC(=O)N1[C@H](C)CC[C@H]1C(=O)N[C@@H](c1ccccc1)c1ccc(C(C)C)cc1 [Compound 215]
Lookup: When a and b are compared, which has the higher number for pIC50? Answer by quoting the chosen item's label.
Found: a

a. O=C(N[C@@H](c1ccccc1)c1ccc(C2CC2)c(F)c1)[C@@H]1C[C@@H](F)CN1C(=O)Cc1ccc2ncnn2c1 [Compound 478]
b. CC(C)c1ccc([C@@H](NC(=O)[C@@H]2C[C@@H](F)CN2C(=O)Cc2cnn(C)c2)c2ccccc2)cc1F [Compound 355]
c. O=C(N[C@@H](c1ccccc1)c1ccc(C2CC2)c(F)n1)[C@@H]1[C@H](O)[C@@H](F)CN1C(=O)Cn1nnnc1C(F)F [Compound 764]
Lookup: Parameters: sort_field (pIC50), sort_dir (desc). Write the labels out in the order the request specifies.
Found: b, a, c

a. Cc1ncccc1CCC(=O)N1C[C@H](F)C[C@H]1C(=O)N[C@@H](c1ccccc1)c1ccc(C(C)C)cc1 [Compound 102]
b. CC(C)c1ccc([C@@H](NC(=O)[C@@H]2C[C@@H](F)CN2C(=O)Cn2nncc2N2CCC2)c2ccccc2)nc1 [Compound 715]
Lookup: // task: argmin of pIC50 over [ a , b ] Answer by quoting the chosen item's label.
Found: b
(b: 6.98, a: 7.24)

###

Biological target: hGYS1 enzyme (recombinant hGYS1/GN1 protein) (Homo sapiens (Human), UniProt P13807)
Sequence (P13807 whole entry): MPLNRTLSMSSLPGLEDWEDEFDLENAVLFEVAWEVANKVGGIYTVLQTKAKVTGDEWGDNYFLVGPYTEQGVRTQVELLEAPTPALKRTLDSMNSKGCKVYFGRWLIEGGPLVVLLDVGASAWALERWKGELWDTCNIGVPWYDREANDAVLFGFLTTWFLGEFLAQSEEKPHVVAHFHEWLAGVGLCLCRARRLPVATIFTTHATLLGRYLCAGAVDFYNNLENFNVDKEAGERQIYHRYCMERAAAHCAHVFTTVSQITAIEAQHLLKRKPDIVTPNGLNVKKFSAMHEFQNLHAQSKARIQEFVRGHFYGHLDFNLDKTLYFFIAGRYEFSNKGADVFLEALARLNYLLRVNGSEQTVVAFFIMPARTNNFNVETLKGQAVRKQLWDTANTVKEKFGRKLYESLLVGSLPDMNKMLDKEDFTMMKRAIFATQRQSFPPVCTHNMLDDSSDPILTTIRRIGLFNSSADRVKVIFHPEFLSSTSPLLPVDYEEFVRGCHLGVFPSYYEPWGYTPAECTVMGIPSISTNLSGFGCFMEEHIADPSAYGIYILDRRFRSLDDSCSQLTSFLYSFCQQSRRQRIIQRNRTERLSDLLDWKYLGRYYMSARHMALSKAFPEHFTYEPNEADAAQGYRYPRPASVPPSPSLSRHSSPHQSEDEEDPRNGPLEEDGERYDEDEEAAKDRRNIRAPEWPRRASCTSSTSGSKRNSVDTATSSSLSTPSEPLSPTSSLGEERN
Sequence (P46976 whole entry partner): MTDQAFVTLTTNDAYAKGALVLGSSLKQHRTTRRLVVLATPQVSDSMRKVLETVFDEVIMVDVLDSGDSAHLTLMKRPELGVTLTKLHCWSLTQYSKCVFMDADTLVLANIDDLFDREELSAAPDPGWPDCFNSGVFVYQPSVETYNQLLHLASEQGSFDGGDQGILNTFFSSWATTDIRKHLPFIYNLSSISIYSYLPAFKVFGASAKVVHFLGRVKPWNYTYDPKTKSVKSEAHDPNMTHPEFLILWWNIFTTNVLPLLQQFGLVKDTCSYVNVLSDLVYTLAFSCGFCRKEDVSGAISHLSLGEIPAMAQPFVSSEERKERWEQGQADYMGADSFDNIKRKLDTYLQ
Assay: GYS1 coupled enzyme assay (PK/LDH)
Details: hGYS1/GN1 50 nM, UDP-Glucose 0.8 mM, G6P 1 mM; geometric mean of at least 2 runs
pIC50: −log10 of the molar value.
readout_label: pIC50

CO[C@H](C)[C@@H](C(=O)N1C[C@H](F)C[C@H]1C(=O)N[C@@H](c1ccccc1)c1ccc(C(C)C)cc1)N(C)C(C)=O | 6.45
CC(C)c1ccc([C@@H](NC(=O)[C@@H]2C[C@@H](F)CN2C(=O)Cc2noc3ccccc23)c2ccccc2)cc1 | 6.96
O=C(N[C@@H](c1ccccc1)c1ccc(C2CC(F)(F)C2)cn1)[C@@H]1C[C@@H](F)CN1C(=O)Cc1[nH]nnc1C(F)(F)F | 7.96
CC(C)c1ccc(C(NC(=O)[C@@H]2C[C@@H](F)CN2C(=O)Cc2cnn[nH]2)c2ncc3ccccn23)nc1F (single isomer, unassigned) | 5.56
CC(C)c1ccc([C@@H](NC(=O)[C@@H]2C[C@@H](F)CN2C(=O)CNC(=O)N2CCN(C(=O)OC(C)(C)C)CC2)c2ccccc2)cc1F | 7.70

1. CC(C)c1ccc([C@@H](NC(=O)[C@@H]2C[C@@H](F)CN2C(=O)CN2CCCCC2=O)c2ccccc2)cc1
2. CC(C)c1ccc([C@@H](NC(=O)[C@@H]2C[C@@H](F)CN2C(=O)Cn2ncc(N3CCNCC3)n2)c2ccccc2)cc1F
3. CC(C)c1ccc([C@@H](NC(=O)[C@@H]2C[C@@H](F)CN2C(=O)Cn2ncc(N(C)C)n2)c2ccccc2)nc1F
4. CC(C)c1ccc(C(NC(=O)[C@@H]2C[C@@H](F)CN2C(=O)Cc2cnn[nH]2)c2cccc(-c3cnco3)c2)nc1F (single isomer, unassigned) [Compound 692]
5. O=C(N[C@@H](c1ccccc1)c1ccc(C2CC2)c(F)c1)[C@@H]1C[C@@H](F)CN1C(=O)CN1CCOCC1=O
Lookup: Arrange items by their pIC50 values in increasing order. Write the labels out in the order the request specifies.
Found: 4, 5, 1, 2, 3

1. CC(C)c1ccc([C@@H](NC(=O)[C@@H]2C[C@@H](F)CN2C(=O)C(C)n2ccnc2)c2ccccc2)cc1F (single isomer, unassigned) [Compound 768]
2. Cc1ncncc1C(=O)N1C[C@H](F)C[C@H]1C(=O)N[C@@H](c1ccccc1)c1ccc(C(C)C)cc1
Lookup: // task: argmin of pIC50 over [ 1 , 2 ] Answer by quoting the chosen item's label.
Found: 2
(2: 6.02, 1: 6.92)
